System: human M2 macrophages
experiment.summary: Inhibition of human M2 macrophage activity, hCCL22 in culture supernatant by ELISA
Assay type: cell-based
condition: hCCL22 secretion, THP-1 derived M2-like macrophages, compound present during 72 hours of differentiation
Structures can show the parent of a compound that is named as a salt.
experimental.readout: EC50 (µM)
I only need the number, in µM, no unit after it.

Example cases with answers are listed next.
- molecule: "CC(C)(C)OC(=O)N1CCN(C(=O)c2ccc(-n3c(=O)n4n(c3=O)C3C(=CC4)C(C)(C)Oc4cc(O)ccc43)cc2)CC1 (stereo not drawn)"
  units.of.measure: "µM"
  EC50: 1.5
- molecule: "CC(=O)c1ccc(-n2c(=O)n3n(c2=O)C2C(=CC3)C(C)(C)Oc3cc(OC(=O)N4C(C)CNCC4C)ccc32)cc1 (stereo not drawn) [Example 100, hydrochloride]"
  units.of.measure: "µM"
  EC50: 15.9
- molecule: "CC(=O)c1ccc(-n2c(=O)n3n(c2=O)C2C(=CC3)C(C)(C)Oc3c2cc(Cl)c(NC(C)C)c3Cl)cc1 (stereo not drawn)"
  units.of.measure: "µM"
  EC50: 14.7
- molecule: "CC(=O)C(=O)N1CCN(C(=O)Oc2ccc3c(c2)OC(C)(C)C2=CCn4c(=O)n(-c5ccc(C(C)=O)cc5)c(=O)n4C23)CC1 (stereo not drawn)"
  units.of.measure: "µM"
  EC50: 74.7

Q: Dear colleague, I am looking for the recorded EC50 of the following molecule: CC(=O)c1ccc(-n2c(=O)n3n(c2=O)C2C(=CC3)C(C)(C)Oc3cc(OC(=O)N[C@@H](CCCNC(=N)N)C(=O)O)ccc32)cc1 (stereo partly drawn)
Ans: 5.2

Q: Follow-up entry: CC(=O)c1ccc(-n2c(=O)n3n(c2=O)C2C(=CC3)C(C)(C)Oc3cc(OC(=O)CN(C)C)ccc32)cc1 (stereo not drawn) [Example 72, hydrochloride]
Ans: 4.7

---

Consider the following compounds and their measured inhibition at 10 µM readings.
Tested on: human M2 macrophages
experiment.summary: Inhibition of human M2 macrophage activity, hCCL22 in culture supernatant by ELISA
Assay type: cell-based
condition: Macrophage, hCCL22 inhibitory activity at 10 μM, 72 hours
I only need the number, in %, no unit after it.

- compound: "CC(=O)c1ccc(-n2c(=O)n3n(c2=O)C2C(=CC3)C(C)(C)Oc3cc(NS(C)(=O)=O)ccc32)cc1 (centres unmarked)"
  target.entity: "human M2 macrophages"
  units.of.measure: "%"
  readout.number: 42.3
- compound: "CCNc1ccc2c(c1)OC(C)(C)C1=CCn3c(=O)n(-c4ccc(C(C)=O)cc4)c(=O)n3C12 (centres unmarked)"
  target.entity: "human M2 macrophages"
  units.of.measure: "%"
  readout.number: 79.9
- compound: "CCN(CC)c1ccc2c(c1)OC(C)(C)C1=CCn3c(=O)n(-c4ccc(C(C)=O)cc4)c(=O)n3C12 (centres unmarked)"
  target.entity: "human M2 macrophages"
  units.of.measure: "%"
  readout.number: 96.5
- compound: "CNc1ccc2c(c1)OC(C)(C)C1=CCn3c(=O)n(-c4ccc(C(C)=O)cc4)c(=O)n3C12 (centres unmarked)"
  target.entity: "human M2 macrophages"
  units.of.measure: "%"
  readout.number: 84.4
- compound: "CC(=O)c1ccc(-n2c(=O)n3n(c2=O)C2C(=CC3)C(C)(C)Oc3c2cc(Cl)c(O)c3Cl)cc1 (centres unmarked)"
  target.entity: "human M2 macrophages"
  units.of.measure: "%"
  readout.number: 78.1
- compound: "CC1(C)Oc2cc(NC3COC3)ccc2C2C1=CCn1c(=O)n(-c3ccc(F)cc3)c(=O)n12 (centres unmarked)"
  target.entity: "human M2 macrophages"
  units.of.measure: "%"
  readout.number: 96.7
- compound: "CC1(C)Oc2cc(O)ccc2C2C1=CCn1c(=O)n(-c3cccc(F)n3)c(=O)n12 (centres unmarked)"
  target.entity: "human M2 macrophages"
  units.of.measure: "%"
  readout.number: 16.8
- compound: "CC(=O)c1ccc(-n2c(=O)n3n(c2=O)C2C(=CC3)C(C)(C)Oc3cc(N4CCOCC4)ccc32)cc1 (centres unmarked)"
  target.entity: "human M2 macrophages"
  units.of.measure: "%"
  readout.number: 60.7
- compound: "CC(=O)c1ccc(-n2c(=O)n3n(c2=O)C2C(=CC3)C(C)(C)Oc3cc(NC(C)(C)C)ccc32)cc1 (centres unmarked)"
  target.entity: "human M2 macrophages"
  units.of.measure: "%"
  readout.number: 97.3
- compound: "CC(=O)c1ccc(-n2c(=O)n3n(c2=O)C2C(=CC3)C(C)(C)Oc3cc(N4CCN(C(C)=O)CC4)ccc32)cc1 (centres unmarked)"
  target.entity: "human M2 macrophages"
  units.of.measure: "%"
  readout.number: 18.8

Q: Dear colleague, I am looking for the recorded inhibition at 10 µM of the following compound: CC(=O)c1ccc(-n2c(=O)n3n(c2=O)C2C(=CC3)C(C)(C)Oc3cc(S(C)(=O)=O)ccc32)cc1 (centres unmarked)
Ans: 51.9

Q: Follow-up entry: CC(=O)c1ccc(-n2c(=O)n3n(c2=O)C2C(=CC3)C(C)(C)Oc3cc(N4CCCC4)ccc32)cc1 (centres unmarked)
Ans: 73.7

Q: Follow-up entry: CC(=O)c1ccc(-n2c(=O)n3n(c2=O)C2C(=CC3)C(C)(C)Oc3c2cc(Cl)c(N)c3Cl)cc1 (centres unmarked)
Ans: 97.2

Q: Follow-up entry: CC(=O)c1ccc(-n2c(=O)n3n(c2=O)C2C(=CC3)C(C)(C)Oc3c2cc(Br)c(O)c3Br)cc1 (centres unmarked)
Ans: 98.4
